Sourced from ChEMBL document CHEMBL3352415

# STUDY_SYSTEM: Tyrosine-protein phosphatase non-receptor type 11 (Homo sapiens, UniProt Q06124)
# Sequence (Q06124 whole entry): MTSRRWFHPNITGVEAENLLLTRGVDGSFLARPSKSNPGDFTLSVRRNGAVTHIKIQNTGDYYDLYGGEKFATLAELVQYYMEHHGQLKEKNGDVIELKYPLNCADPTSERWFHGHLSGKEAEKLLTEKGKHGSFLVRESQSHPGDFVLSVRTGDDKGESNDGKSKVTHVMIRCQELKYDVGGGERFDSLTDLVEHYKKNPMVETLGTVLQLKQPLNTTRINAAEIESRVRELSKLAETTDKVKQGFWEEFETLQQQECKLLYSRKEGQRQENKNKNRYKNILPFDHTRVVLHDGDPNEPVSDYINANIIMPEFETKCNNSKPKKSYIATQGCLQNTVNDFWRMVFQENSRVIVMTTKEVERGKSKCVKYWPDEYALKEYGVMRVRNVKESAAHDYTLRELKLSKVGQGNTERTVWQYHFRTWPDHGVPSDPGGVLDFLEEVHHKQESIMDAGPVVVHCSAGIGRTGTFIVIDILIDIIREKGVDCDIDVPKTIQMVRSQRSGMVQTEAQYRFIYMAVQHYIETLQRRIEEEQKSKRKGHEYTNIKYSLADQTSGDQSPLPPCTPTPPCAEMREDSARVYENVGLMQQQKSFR
# EXPERIMENTAL_PROTOCOL: Inhibition of SHP2 (unknown origin)
METRIC_NAME: IC50

// worked examples, IC50 included
[[record]]
smiles = "O=C(Nc1nnc(-c2ccc(Oc3ccc([N+](=O)[O-])cc3[N+](=O)[O-])cc2)s1)c1cccc(Cl)c1"
recorded_measurement = "Not Active"

[[record]]
smiles = "O=C(Cc1cccc2ccccc12)Nc1nnc(-c2ccc(Oc3ccc([N+](=O)[O-])cc3)cc2)s1"
recorded_measurement = "Not Active"

[[record]]
smiles = "O=C(Nc1nnc(-c2ccc(Oc3ccc([N+](=O)[O-])cc3)cc2)s1)c1ccccc1Cl"
recorded_measurement = "Not Active"

[[record]]
smiles = "O=C(Nc1nnc(-c2ccc(Oc3ccc([N+](=O)[O-])cc3)cc2)s1)c1ccco1"
recorded_measurement = "Not Active"

[[record]]
smiles = "O=C(Nc1nnc(-c2ccc(Oc3ccc([N+](=O)[O-])cc3[N+](=O)[O-])cc2)s1)c1ccccc1[N+](=O)[O-]"
recorded_measurement = "Not Active"

[[record]]
smiles = "O=C(Nc1nnc(-c2ccc(Oc3ccc([N+](=O)[O-])cc3[N+](=O)[O-])cc2)s1)c1ccc(Cl)cc1"
recorded_measurement = "Not Active"


Quick check: IC50 of O=C(Nc1nnc(-c2ccc(Oc3ccc([N+](=O)[O-])cc3)cc2)s1)c1ccccc1[N+](=O)[O-] ?
Not Active

Recorded IC50 of O=C(Nc1nnc(-c2ccc(Oc3ccc([N+](=O)[O-])cc3)cc2)s1)c1cccc(F)c1 , please.
Not Active

I would be grateful if you could share the reported IC50 for Cc1ccc(C(=O)Nc2nnc(-c3ccc(Oc4ccc([N+](=O)[O-])cc4[N+](=O)[O-])cc3)s2)cc1 .
Not Active

----------
# STUDY_SYSTEM: Tyrosine-protein phosphatase non-receptor type 1 (Homo sapiens)
# Sequence (whole entry): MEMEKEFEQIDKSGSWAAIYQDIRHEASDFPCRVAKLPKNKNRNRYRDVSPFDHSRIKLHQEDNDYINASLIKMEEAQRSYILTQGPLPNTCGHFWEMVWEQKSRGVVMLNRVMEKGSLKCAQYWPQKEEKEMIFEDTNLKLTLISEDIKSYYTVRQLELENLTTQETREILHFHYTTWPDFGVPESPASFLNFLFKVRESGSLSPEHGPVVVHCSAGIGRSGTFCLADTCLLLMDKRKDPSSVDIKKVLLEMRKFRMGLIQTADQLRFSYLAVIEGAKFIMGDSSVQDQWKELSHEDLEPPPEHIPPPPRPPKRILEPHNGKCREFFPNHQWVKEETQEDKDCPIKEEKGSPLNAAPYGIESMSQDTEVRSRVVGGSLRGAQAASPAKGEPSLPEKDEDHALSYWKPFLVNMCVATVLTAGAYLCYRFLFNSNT
# EXPERIMENTAL_PROTOCOL: Inhibition of PTP1B (unknown origin) at 5 ug/ml
METRIC_NAME: inhibition (%)
The response must be a number in % with no trailing unit.

Some molecules with known inhibition results, for comparison:
[[record]]
smiles = "O=C(Nc1nnc(-c2ccc(Oc3ccc([N+](=O)[O-])cc3)cc2)s1)c1ccccc1[N+](=O)[O-]"
measurement_unit = "%"
recorded_measurement = 85

[[record]]
smiles = "COc1cccc(C(=O)Nc2nnc(-c3ccc(Oc4ccc([N+](=O)[O-])cc4[N+](=O)[O-])cc3)s2)c1"
measurement_unit = "%"
recorded_measurement = 86.3

[[record]]
smiles = "O=C(Cc1ccccc1)Nc1nnc(-c2ccc(Oc3ccc([N+](=O)[O-])cc3[N+](=O)[O-])cc2)s1"
measurement_unit = "%"
recorded_measurement = 90.9

[[record]]
smiles = "O=C(Nc1nnc(-c2ccc(Oc3ccc([N+](=O)[O-])cc3)cc2)s1)c1ccco1"
measurement_unit = "%"
recorded_measurement = 75.1

[[record]]
smiles = "O=C(Nc1nnc(-c2ccc(Oc3ccc([N+](=O)[O-])cc3)cc2)s1)c1ccc([N+](=O)[O-])cc1"
measurement_unit = "%"
recorded_measurement = 95.2

[[record]]
smiles = "COc1cc(C(=O)Nc2nnc(-c3ccc(Oc4ccc([N+](=O)[O-])cc4[N+](=O)[O-])cc3)s2)cc(OC)c1OC"
measurement_unit = "%"
recorded_measurement = 84.2

[[record]]
smiles = "O=C(Nc1nnc(-c2ccc(Oc3ccc([N+](=O)[O-])cc3)cc2)s1)c1cccc([N+](=O)[O-])c1"
measurement_unit = "%"
recorded_measurement = 94.6


Alright, here's another molecule for you.
Please report the recorded inhibition for Cc1ccccc1C(=O)Nc1nnc(-c2ccc(Oc3ccc([N+](=O)[O-])cc3[N+](=O)[O-])cc2)s1 .
84
